experiment: Single ascending dose study, fasted and fed: safety and non-compartmental plasma PK; assay type: in vivo, healthy volunteers (human); settings: human, plasma, oral, 1600 mg, Harmonic Mean of 10 subjects; single 1600 mg dose, Fed; read-out: t½ (converted)

compound	half-life, h
CC(C)(C)OC(=O)N[C@H]1CCCCC/C=C\[C@@H]2C[C@@]2(C(=O)NS(=O)(=O)C2CC2)NC(=O)[C@@H]2C[C@@H](OC(=O)N3Cc4cccc(F)c4C3)CN2C1=O [ITMN-191]	2.43

---

The molecules listed here are annotated with their EC50.
molecular target: NS3-NS4 (Hepatitis C virus genotype 1a); test: cell-based; conditions: EC50, NS3-NS4 activity
measure: EC50

structure notation	measure	reading
CC(C)(C)OC(=O)N[C@H]1CCCCC/C=C\[C@@H]2C[C@@]2(C(=O)NS(=O)(=O)Cc2cc(C(F)(F)F)cc(C(F)(F)F)c2)NC(=O)[C@@H]2C[C@@H](OC(=O)N3Cc4cccc(F)c4C3)CN2C1=O	EC50	10000 to 50000 nM
Cc1csc(S(=O)(=O)NC(=O)[C@@]23C[C@H]2CCCCCCC[C@H](NC(=O)OC(C)(C)C)C(=O)N2C[C@H](OC(=O)N4Cc5cccc(F)c5C4)C[C@H]2C(=O)N3)c1	EC50	< 100 nM
CC(C)(C)OC(=O)N[C@H]1CCCCC/C=C\[C@@H]2C[C@@]2(C(=O)NS(=O)(=O)c2cc(Cl)ccc2Cl)NC(=O)[C@@H]2C[C@@H](OC(=O)N3Cc4cccc(F)c4C3)CN2C1=O	EC50	< 100 nM
CC(C)(C)OC(=O)N[C@H]1CCCCC/C=C\[C@@H]2C[C@@]2(C(=O)NS(=O)(=O)Cc2ccccc2Cl)NC(=O)[C@@H]2C[C@@H](OC(=O)N3Cc4cccc(F)c4C3)CN2C1=O	EC50	< 100 nM
Cc1cccc(ONC(=O)[C@@]23C[C@H]2/C=C\CCCCC[C@H](NC(=O)OC(C)(C)C)C(=O)N2C[C@H](OC(=O)N4Cc5cccc(F)c5C4)C[C@H]2C(=O)N3)c1	EC50	1000 to 10000 nM
O=C(N[C@H]1CCCCC/C=C\[C@@H]2C[C@@]2(C(=O)NS(=O)(=O)C2CC2)NC(=O)[C@@H]2C[C@@H](OC(=O)N3Cc4ccc(F)cc4C3)CN2C1=O)OC1CCOCC1	EC50	100 to 1000 nM
Cc1ccc(ONC(=O)[C@@]23C[C@H]2CCCCCCC[C@H](NC(=O)OC(C)(C)C)C(=O)N2C[C@H](OC(=O)N4Cc5cccc(F)c5C4)C[C@H]2C(=O)N3)cc1C	EC50	1000 to 10000 nM
CC(C)(C)OC(=O)N[C@H]1CCCCC/C=C\[C@@H]2C[C@@]2(C(=O)NS(=O)(=O)Cc2ccccc2F)NC(=O)[C@@H]2C[C@@H](OC(=O)N3Cc4cccc(F)c4C3)CN2C1=O	EC50	< 100 nM
CN(C(=O)N[C@H]1CCCCC/C=C\[C@@H]2C[C@@]2(C(=O)NS(=O)(=O)c2c(Cl)cccc2Cl)NC(=O)[C@@H]2C[C@@H](OC(=O)N3Cc4cccc(F)c4C3)CN2C1=O)C(C)(C)C	EC50	100 to 1000 nM
Cc1ccc(ONC(=O)[C@@]23C[C@H]2/C=C\CCCCC[C@H](NC(=O)OC(C)(C)C)C(=O)N2C[C@H](OC(=O)N4Cc5cccc(F)c5C4)C[C@H]2C(=O)N3)cc1C	EC50	1000 to 10000 nM

---

The molecules listed here are annotated with their pIC50.
target: NS3-NS4 (Hepatitis C virus genotype 1a, UniProt P27958)
Sequence (P27958 1027-1657): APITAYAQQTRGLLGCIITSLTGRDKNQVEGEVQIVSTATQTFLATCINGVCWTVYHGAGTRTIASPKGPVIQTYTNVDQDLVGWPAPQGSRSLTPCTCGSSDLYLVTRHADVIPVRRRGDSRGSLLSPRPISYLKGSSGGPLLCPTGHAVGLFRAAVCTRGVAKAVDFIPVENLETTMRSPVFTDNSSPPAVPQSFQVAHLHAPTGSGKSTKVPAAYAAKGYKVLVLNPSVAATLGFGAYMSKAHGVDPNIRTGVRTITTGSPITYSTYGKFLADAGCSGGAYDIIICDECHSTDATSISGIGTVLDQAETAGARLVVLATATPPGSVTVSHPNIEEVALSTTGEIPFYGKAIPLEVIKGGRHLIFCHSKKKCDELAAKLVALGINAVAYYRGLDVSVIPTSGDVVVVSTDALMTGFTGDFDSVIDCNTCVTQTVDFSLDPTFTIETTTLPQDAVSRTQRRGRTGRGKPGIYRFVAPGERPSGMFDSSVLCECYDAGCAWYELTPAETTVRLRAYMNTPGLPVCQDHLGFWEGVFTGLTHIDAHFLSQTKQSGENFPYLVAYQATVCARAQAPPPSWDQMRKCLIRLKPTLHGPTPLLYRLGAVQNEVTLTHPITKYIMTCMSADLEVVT
Sequence (P27958 1658-1711): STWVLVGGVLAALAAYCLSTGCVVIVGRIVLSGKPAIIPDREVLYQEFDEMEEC
pIC50: −log10 of the molar value.
measure: pIC50

structure notation	measure	reading
CONC(=O)[C@@]12C[C@H]1/C=C\CCCCC[C@H](NC(=O)OC(C)(C)C)C(=O)N1C[C@H](OC(=O)N3Cc4cccc(F)c4C3)C[C@H]1C(=O)N2	pIC50	> 7.00
CCC(C)(C)OC(=O)N[C@H]1CCCCC/C=C\[C@@H]2C[C@@]2(C(=O)NS(=O)(=O)c2ccccc2C)NC(=O)[C@@H]2C[C@@H](OC(=O)N3Cc4cccc(F)c4C3)CN2C1=O	pIC50	> 7.00
CC(C)(C)OC(=O)N[C@H]1CCCCC/C=C\[C@@H]2C[C@@]2(C(=O)NS(=O)(=O)c2cc(Cl)cs2)NC(=O)[C@@H]2C[C@@H](OC(=O)N3Cc4cccc(F)c4C3)CN2C1=O	pIC50	> 7.00
COc1cc(CS(=O)(=O)NC(=O)[C@@]23C[C@H]2CCCCCCC[C@H](NC(=O)OC(C)(C)C)C(=O)N2C[C@H](OC(=O)N4Cc5cccc(F)c5C4)C[C@H]2C(=O)N3)cc(OC)c1	pIC50	> 7.00
CC(C)(C)OC(=O)N[C@H]1CCCCCCC[C@@H]2C[C@@]2(C(=O)NS(=O)(=O)Cc2cccc(F)c2)NC(=O)[C@@H]2C[C@@H](OC(=O)N3Cc4cccc(F)c4C3)CN2C1=O	pIC50	> 7.00

---

experiment: Single ascending dose study, fasted and fed: safety and non-compartmental plasma PK; type: in vivo, healthy volunteers (human); conditions: human, plasma, oral, 1600 mg, Median of 10 subjects; single 1600 mg dose, Fed; read-out: AUC0-inf

structure notation	AUC0-inf, ng·h/mL
CC(C)(C)OC(=O)N[C@H]1CCCCC/C=C\[C@@H]2C[C@@]2(C(=O)NS(=O)(=O)C2CC2)NC(=O)[C@@H]2C[C@@H](OC(=O)N3Cc4cccc(F)c4C3)CN2C1=O	1120

---

experiment: Single ascending dose study, fasted and fed: safety and non-compartmental plasma PK; type: in vivo, healthy volunteers (human); conditions: human, plasma, oral, 1600 mg, Median of 10 subjects; single 1600 mg dose, Fasted; read-out: t½ (converted)

compound	output unit	half-life
CC(C)(C)OC(=O)N[C@H]1CCCCC/C=C\[C@@H]2C[C@@]2(C(=O)NS(=O)(=O)C2CC2)NC(=O)[C@@H]2C[C@@H](OC(=O)N3Cc4cccc(F)c4C3)CN2C1=O [ITMN-191]	h	2.21

---

experiment: Single ascending dose study, fasted and fed: safety and non-compartmental plasma PK; type: in vivo, healthy volunteers (human); conditions: human, plasma, oral, 1600 mg, Median of 10 subjects; single 1600 mg dose, Fasted; read-out: Cmax

structure notation	Cmax / ng/mL
CC(C)(C)OC(=O)N[C@H]1CCCCC/C=C\[C@@H]2C[C@@]2(C(=O)NS(=O)(=O)C2CC2)NC(=O)[C@@H]2C[C@@H](OC(=O)N3Cc4cccc(F)c4C3)CN2C1=O	685

---

target: UniProtKB P27958; test: cell-based; conditions: EC50, NS3-NS4 activity
measure: EC50

structure notation	assayed system	measure	reading
O=C1N[C@]2(C(=O)NS(=O)(=O)C3CC3)C[C@H]2/C=C\CCCCC[C@H](Nc2nc(-c3cccnc3)cs2)C(=O)N2C[C@H](OC(=O)N3Cc4cccc(F)c4C3)C[C@@H]12	UniProtKB P27958	EC50	< 100 nM
CCc1cnc(N[C@H]2CCCCC/C=C\[C@@H]3C[C@@]3(C(=O)NS(=O)(=O)C3CC3)NC(=O)[C@@H]3C[C@@H](OC(=O)N4Cc5cccc(F)c5C4)CN3C2=O)s1	UniProtKB P27958	EC50	< 100 nM
CC(C)(C)OC(=O)N[C@H]1CCCCC/C=C\[C@@H]2C[C@@]2(C(=O)NS(=O)(=O)Cc2cccc(F)c2)NC(=O)[C@@H]2C[C@@H](OC(=O)N3Cc4cccc(F)c4C3)CN2C1=O	UniProtKB P27958	EC50	100 to 1000 nM
CC(C)(C)OC(=O)N[C@H]1CCCCC/C=C\[C@@H]2C[C@@]2(C(=O)NS(=O)(=O)Cc2cc(F)cc(F)c2)NC(=O)[C@@H]2C[C@@H](OC(=O)N3Cc4cccc(F)c4C3)CN2C1=O	UniProtKB P27958	EC50	100 to 1000 nM
CC(C)(C)OC(=O)N[C@H]1CCCCC/C=C\[C@@H]2C[C@@]2(C(=O)NS(=O)(=O)c2c(F)cccc2F)NC(=O)[C@@H]2C[C@@H](OC(=O)N3Cc4cccc(F)c4C3)CN2C1=O	UniProtKB P27958	EC50	100 to 1000 nM

---

assay: Single ascending dose study, fasted and fed: safety and non-compartmental plasma PK; format: in vivo, healthy volunteers (human); conditions: human, plasma, oral, 1600 mg, Median of 10 subjects; single 1600 mg dose, Fed; read-out: t½ (converted)

molecule	half-life [h]
CC(C)(C)OC(=O)N[C@H]1CCCCC/C=C\[C@@H]2C[C@@]2(C(=O)NS(=O)(=O)C2CC2)NC(=O)[C@@H]2C[C@@H](OC(=O)N3Cc4cccc(F)c4C3)CN2C1=O [ITMN-191]	2.64

---

molecular target: NS3-NS4 (Hepatitis C virus genotype 1a, UniProt P27958); test: cell-based; settings: EC50, NS3-NS4 activity
pEC50: −log10 of the molar value.
measure: pEC50

structure notation	measure	reading
CC(C)(C)OC(=O)N[C@H]1CCCCC/C=C\[C@@H]2C[C@@]2(C(=O)NS(=O)(=O)c2cc(Cl)ccc2F)NC(=O)[C@@H]2C[C@@H](OC(=O)N3Cc4cccc(F)c4C3)CN2C1=O	pEC50	> 7.00
CC(C)(C)OC(=O)N[C@H]1CCCCC/C=C\[C@@H]2C[C@@]2(C(=O)NS(=O)(=O)Cc2cc(F)ccc2F)NC(=O)[C@@H]2C[C@@H](OC(=O)N3Cc4cccc(F)c4C3)CN2C1=O	pEC50	> 7.00
CC(C)(C)OC(=O)N[C@H]1CCCCC/C=C\[C@@H]2C[C@@]2(C(=O)NS(=O)(=O)Cc2cccc(Cl)c2)NC(=O)[C@@H]2C[C@@H](OC(=O)N3Cc4cccc(F)c4C3)CN2C1=O	pEC50	> 7.00
CC(C)(C)OC(=O)N[C@H]1CCCCC/C=C\[C@@H]2C[C@@]2(C(=O)NS(=O)(=O)Cc2ccc(F)cc2)NC(=O)[C@@H]2C[C@@H](OC(=O)N3Cc4cccc(F)c4C3)CN2C1=O	pEC50	6.00 to 7.00
O=C1N[C@]2(C(=O)NS(=O)(=O)C3CC3)C[C@H]2/C=C\CCCCC[C@H](Nc2nc(-c3ccc(F)cc3)cs2)C(=O)N2C[C@H](OC(=O)N3CCc4ccccc4C3)C[C@@H]12	pEC50	> 7.00
CC(=O)O[C@@H]1C[C@H]2C(=O)N[C@]3(C(=O)NS(=O)(=O)C4CC4)C[C@H]3/C=C\CCCCC[C@H](Nc3nc(-c4ccc(F)cc4)c(C)s3)C(=O)N2C1	pEC50	6.00 to 7.00
N#Cc1ccc(-c2csc(N[C@H]3CCCCC/C=C\[C@@H]4C[C@@]4(C(=O)NS(=O)(=O)C4CC4)NC(=O)[C@@H]4C[C@@H](OC(=O)N5Cc6cccc(F)c6C5)CN4C3=O)n2)cc1	pEC50	> 7.00
CC(C)(C)OC(=O)N[C@H]1CCCCC[C@@H]2C[C@@H]2[C@@H]2C[C@@]2(C(=O)NS(=O)(=O)C2CC2)NC(=O)[C@@H]2C[C@@H](OC(=O)N3Cc4cccc(F)c4C3)CN2C1=O	pEC50	> 7.00
O=C(N[C@H]1CCCCC/C=C\[C@@H]2C[C@@]2(C(=O)NS(=O)(=O)C2CC2)NC(=O)[C@@H]2C[C@@H](OC(=O)N3Cc4cccc(F)c4C3)CN2C1=O)OC(C1CC1)C1CC1	pEC50	6.00 to 7.00
CC(C)(C)OC(=O)N[C@H]1CCCCC/C=C\[C@@H]2C[C@@]2(C(=O)NS(=O)(=O)c2cccnc2Cl)NC(=O)[C@@H]2C[C@@H](OC(=O)N3Cc4cccc(F)c4C3)CN2C1=O	pEC50	> 7.00

Values from patent US20090155209A1
